- protocol description: soluble fraction after stress (log2 fold change); higher = more stays soluble; pooled small domains, quantitative proteomics;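 further: 20 min heating vs room temperature control held 20 min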
- condition: stress: 75 degC

- seq: "HMTQHDIVPLMLKMVDVLTQFVELDIPFLQQERQTRLAALNAMMGRADVSLAEKYRRIMEAYQVETEYG"
  soluble fraction (log2): -0.0856
- seq: "HMVERQVTVPNLTGLGVADAQRLAQSMELDIEVLGEQESTDARPGAVLQQTPGAGTRAAAGSVVSVLV"
  soluble fraction (log2): 0.201
- seq: "HMIRILIVDDSAFMRKLLSDVFEEDKNFVVVDTARNGQDAVEKVKRLKPDLVTMDVEMPVMDGLTAVEIIM"
  soluble fraction (log2): -0.453
- seq: "HMGSLKEKIVLLEKLYQQNPSEEIKLLLINTYQLNHQYIQARKLFFTLTPEQKEKLPLASEFLIFL"
  soluble fraction (log2): -1.04
- seq: "HMGQVSEAGELEVAADRVIAANPEAVTKYKSGNENILQFLVGQMMKETKGAANPQVAAEILRKKIV"
  soluble fraction (log2): 0.065
- seq: "HMEDKKQVLYELITDKSYRPLRFKELAVLLMVPKALRGELKQTLDELIKEGKITVDSSSRYRAA"
  soluble fraction (log2): 0.599
- seq: "HMIKISDYLSEEDLNFIKEMEKIYPYFDFDSEGNLILTKSIDELKDKYGFDEAFVSRLDTVLNSR"
  soluble fraction (log2): 0.108
- seq: "HMAAFGDLLSELRRDMNMTQDELAKVLFVSPGTISNYENNIHFPDVPKLKQIAQYFGVTTDYLLG"
  soluble fraction (log2): -0.519
- seq: "HMKDMKISTQNILKELATNYPDQTAFRKNVIESTAKSMGYTGKDFYPMLTAETRVKIGTYDLSALLQTV"
  soluble fraction (log2): -0.38
- seq: "HMEKDRDKRIRKRVLTALKRNDKKMTDKAFALLTSRIRDESILDQEVLKLIGYVGDRTTIDSKDINIVVAE"
  soluble fraction (log2): -0.392
- seq: "HMVVVPPPATPKPGDVTGDNKINGYDLSILLSNWKRPGATLAQGDLNKDGVVNGLDLSIMLLNWG"
  soluble fraction (log2): 0.274
- seq: "HMKPVYNKVEIPRGGEYALVLSDGTKVHLNSMSSLRFPVAFTTGKREVELQGEAYFEVSKTGQPFIVNV"
  soluble fraction (log2): 0.219
- seq: "HMSQQVVTDGVNLRLRYAPSPDAETYKWADGTNRHPEKGERFPYLGDIGDFYRIDYKGLVLYVSKQHTHL"
  soluble fraction (log2): -2.04
- seq: "HMDGSEYAGTVRLGDGTLQPVPRFETSNSETPKYLYLVMDVTHDPPVYILEHESAELKSVLGGLVLIGSYS"
  soluble fraction (log2): 0.0157
- seq: "HMEEMTIRQKRTMIFFIEATKHILQEDGYDHLTIREIAQRAGYNAATLYHYFRDLDELIIYGSVG"
  soluble fraction (log2): -0.439
- seq: "HMFLSQQDINRANAASVTDMGDIIRRTFERNAAEINGLELSDAEKKDAVKQMATLATTALKTAAGAVNPY"
  soluble fraction (log2): -0.0457
- seq: "HMKLHFTINGVHYTWYKQFIRGIQIRELGNIPREDELYLDLPDGWKDDFIEDDEIVDLARPGVEHFISRAK"
  soluble fraction (log2): -4.84
- seq: "HMISAADLQTYLKGMDYPAGREDLVAHAQRNNAPESVITILQGFSDRTYRSAAEVSEEFGRE"
  soluble fraction (log2): 0.495
- seq: "HMGMVDKSMYSRYDVGDLVKVLRGPLEGSEGHITEINTDTGTVKVETVFFGRSTVVEVDFSEIDK"
  soluble fraction (log2): -1.37
- seq: "HMTEFFNMQDMFYFKLTGDVTSKERRQSLGKILGIGYGNAAQMVSRLNNYGITKEEFTNAINEIEKQMEAG"
  soluble fraction (log2): -0.715
- seq: "HMEKKPYGEMHNVMLTDEELEKLRHDYPAHFAEYIQRLSLHIDAKGARYKSHYAVIRKWLIADGVKA"
  soluble fraction (log2): -2.36
- seq: "HMVAVSQEEATKMALERVSGASAQDIRIQLEFDDGIQKYEGDIIYNGREYEFEIDANTGTFLEWSEERA"
  soluble fraction (log2): -0.176
- seq: "HMEQAAQPQTGFDPRRLKAGDAVHLLALDQRGVLLEDPKPGAESAPVSVGVAGVRVVVPLREMEALPAG"
  soluble fraction (log2): 0.0201
- seq: "HMAEPLMTQIVEIEYADAEGLRENLEQFLTRLDEKTLLGSVLVDRHTNSLIIQAVRSDLERMLPLIETLDR"
  soluble fraction (log2): -0.804
- seq: "HMEQISIETRIEQLLARLSETEASGFEELFADTSSRADLITTFLALLEMIRLKLVRVFQDGSFGPIRIYKR"
  soluble fraction (log2): -0.572
- seq: "HMTPQVTVPDVTGQSFASAKQVLESLGLTVKQQGSTGENDKVIGQNPTSGNADKGATITLTTQDS"
  soluble fraction (log2): 0.536
- seq: "HMSSIGERISDVRKARGYTQDQLAERIHVSRQTISHWENERALPDFESIKQLSQVLGYDFSS"
  soluble fraction (log2): -0.123
- seq: "HMVMPTGRVRYYDAEKGFGFLSKDSGGDDVYVRSSALPAGVTSLKRGQKVEFGIIDGKRGEQALSVHLL"
  soluble fraction (log2): -0.202
- seq: "HMKVEFTPAYLKKFKANKNAWKFYEAQTNTYKKQSAWYVISAKQEETRLRRLDLLIYDSENGIHIKPLRR"
  soluble fraction (log2): -2.74
- seq: "HMARPLLSPREQDVLALIARGFSYSEVARLQAVTVHTIRTHIRNLYAKLSVHSKTEAVFEATRMGLLP"
  soluble fraction (log2): -1.94
- seq: "HMNITHEINVKSKSKIDFLENNKNLAQFFLTKNPNQFNYNLVFSDKSELNIIKEKIESHKDIEDIDIRYG"
  soluble fraction (log2): -0.0863
- seq: "HMDAPRFAAGDAVRVAGLVSKPQHNGRAGSVLSYDPVSLRYIVKVDGEDEPLKLKPENVLMPA"
  soluble fraction (log2): 0.11
- seq: "HMGVEKHLRITGTSTVSWKDAIVQAVAEASKTIDYLSNVKIIEQRARIDGKKLVEYFVDLDLSFVID"
  soluble fraction (log2): -0.23
